Sourced from the supplement of paper PMC10065799

target: EPHB1 (UniProt P54762); assay: phosphorylation enrichment, bacterial display (enrichment ratio); higher = better substrate or ligand; peptides without Tyr show the background;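 also: 11-residue human phosphosite peptides and single-mutation variants displayed on the E. coli surface, counted by deep sequencing, each peptide's frequency after selection divided by its frequency in the unselected input library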;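 also: frequency after pTyr selection over input frequency; kinase dosed for 20-30% of maximal phosphorylation in three min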
Sequence (P54762 whole entry, looked up): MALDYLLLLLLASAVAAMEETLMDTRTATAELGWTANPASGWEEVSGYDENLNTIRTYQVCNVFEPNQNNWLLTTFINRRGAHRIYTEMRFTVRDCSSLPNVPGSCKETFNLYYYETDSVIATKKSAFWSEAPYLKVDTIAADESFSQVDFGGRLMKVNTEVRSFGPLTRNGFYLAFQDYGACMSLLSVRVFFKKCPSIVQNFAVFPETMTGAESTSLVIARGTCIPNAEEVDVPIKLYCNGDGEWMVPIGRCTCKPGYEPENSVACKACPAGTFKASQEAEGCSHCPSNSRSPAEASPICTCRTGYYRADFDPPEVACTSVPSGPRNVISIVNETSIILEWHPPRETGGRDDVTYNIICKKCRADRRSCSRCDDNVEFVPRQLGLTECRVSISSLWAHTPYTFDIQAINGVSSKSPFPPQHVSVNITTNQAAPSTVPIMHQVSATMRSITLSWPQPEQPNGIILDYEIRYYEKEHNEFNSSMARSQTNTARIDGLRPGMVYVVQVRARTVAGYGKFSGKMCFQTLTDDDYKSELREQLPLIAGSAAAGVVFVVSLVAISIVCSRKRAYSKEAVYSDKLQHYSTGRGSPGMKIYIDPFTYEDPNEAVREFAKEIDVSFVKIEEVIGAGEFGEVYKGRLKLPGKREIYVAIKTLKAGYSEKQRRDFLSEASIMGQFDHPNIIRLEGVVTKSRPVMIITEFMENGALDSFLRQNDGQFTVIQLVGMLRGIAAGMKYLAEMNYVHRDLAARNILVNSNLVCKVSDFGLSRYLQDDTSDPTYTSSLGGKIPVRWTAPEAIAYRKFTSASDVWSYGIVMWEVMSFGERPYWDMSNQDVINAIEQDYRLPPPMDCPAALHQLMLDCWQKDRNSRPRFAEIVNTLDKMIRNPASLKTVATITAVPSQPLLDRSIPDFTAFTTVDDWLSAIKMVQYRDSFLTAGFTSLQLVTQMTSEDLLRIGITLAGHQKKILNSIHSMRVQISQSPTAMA
If the reported phosphorylation enrichment equals or exceeds 0.5, assign true. If not, assign false.

These recorded examples may help you get a feel for the data.
| CHAIN SEQUENCE | CLASS |
| --- | --- |
| ASLLPYFPAIM [IPO4_Y518] | false |
| DSGKLYALDGL [INO80_Y1104_V1108G] | true |
| TSHKGYVAFLE [CARD9_Y76_G72S] | false |
| PQQLWYTHEKK [UBTF_Y207] | true |
| RAFSWYQHQRA [NDST1_Y714_YF] | true |
| ISDNAYQYMLT [MYH7_Y162] | true |
| SQINLYQDVML [ZNF806_Y33_A28S] | true |
| FSIAQYCCRMG [LRRK2_Y2023_G2019S_YF] | true |
| APTSGYQEFVH [IL4R_Y575] | false |
| IENPQYFSDAC [NTRK1_Y496] | true |

Is reported phosphorylation enrichment greater than or equal to 0.5 here: TKEPKYGGAGS [KIAA1210_Y1615_E1616G] false

Is phosphorylation enrichment for DSDTDYGSGYP [RNASEH2A_Y206_L202S] at or above 0.5? true

Textbook exercise: given the entry YRIGPYQPNVP [MATR3_Y784] , state whether its phosphorylation enrichment is greater than or equal to 0.5. true

Exam item: decide whether the reported phosphorylation enrichment for MSIWPYLQKID [MFSD8_Y63] is at least 0.5. true

Record FLQTDDTSQVS [FRMPD1_Y846_Y846D] ; criterion: phosphorylation enrichment no lower than 0.5. Met? true

I'd appreciate it if you could say whether KSDVVYTDWKK [ORM1_Y175] has phosphorylation enrichment at least equal to 0.5. false

Please indicate if the recorded phosphorylation enrichment for EITSHYRHLLR [ZBTB46_Y14] meets or exceeds 0.5. false

Test whether the sequence HSFQCYGQNEA [ENTPD3_Y262_R264Q] records phosphorylation enrichment of 0.5 or higher. true

###

molecular target: Hck (UniProt P08631); assay: phosphorylation enrichment, bacterial display (enrichment ratio); higher = better substrate or ligand; peptides without Tyr show the background
Sequence (P08631 whole entry, looked up): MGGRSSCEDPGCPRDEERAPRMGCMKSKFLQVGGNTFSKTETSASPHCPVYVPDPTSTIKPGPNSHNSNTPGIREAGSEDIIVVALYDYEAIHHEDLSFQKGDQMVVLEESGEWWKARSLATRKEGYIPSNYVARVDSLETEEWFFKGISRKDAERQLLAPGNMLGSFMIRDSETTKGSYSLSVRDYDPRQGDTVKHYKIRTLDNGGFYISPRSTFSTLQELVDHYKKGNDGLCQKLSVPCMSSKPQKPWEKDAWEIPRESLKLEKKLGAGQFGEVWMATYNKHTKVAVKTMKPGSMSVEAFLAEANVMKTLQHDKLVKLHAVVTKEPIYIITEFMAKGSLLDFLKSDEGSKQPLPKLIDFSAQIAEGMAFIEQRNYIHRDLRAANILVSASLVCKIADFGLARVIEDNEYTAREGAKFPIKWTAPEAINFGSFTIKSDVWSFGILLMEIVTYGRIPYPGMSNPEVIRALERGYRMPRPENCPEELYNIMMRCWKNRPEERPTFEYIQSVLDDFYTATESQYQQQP
# binning rule on phosphorylation enrichment: low bracket: < 0.5; middle bracket: ≥ 0.5 and < 0.7; high bracket: ≥ 0.7

Solved cases below.
| CHAIN SEQUENCE | CLASS |
| --- | --- |
| FRIGPYQPNVP [MATR3_Y784_YF] | low bracket |
| QAYSWYQHQRA [NDST1_Y714_R709Q] | high bracket |
| GGQVFYNSEYG [FLT4_Y1333] | low bracket |
| GEPLSYTRFSL [TFRC_Y20] | middle bracket |
| QTLEAYIRCNK [SPAST_Y604_W607C] | high bracket |
| QGCGIYKDFFR [PLA2G2D_Y82_S80G_YF] | high bracket |
| THPFPYLSLEI [MLH1_Y293_L292P] | low bracket |
| FAAAGYGSLEA [EPHA10_Y959] | low bracket |

Note: place this sequence into its band. Item: TNFCLYLRSLE [MTM1_Y71_R69C_YF] middle bracket

###

system: AncSZ; assay: phosphorylation enrichment, bacterial display (enrichment ratio); higher = better substrate or ligand; peptides without Tyr show the background
QUANTITY KIND: phosphorylation enrichment
Would you mind answering with just the numeric figure?

Please review the following examples before continuing.
| CHAIN SEQUENCE | ENDPOINT VALUE |
| --- | --- |
| TYEYKYPEGSS [TGM4_Y440] | 1.32 |
| SQAPGYSFTAA [CYCS_Y47_G42S_YF] | 0.673 |
| KLFFIYTSGTT [SLC27A4_Y245_YF] | 1.16 |
| DWWQEYVLNES [TGM1_Y267_R264W] | 2.11 |
| FSCLPYRRLAF [SLC52A2_Y305_G306R_YF] | 0.992 |

Turning now to a further record.
Recorded result, DTCPPYVLSQG [GJB4_Y237] , phosphorylation enrichment: 1.12
